assay.procedure: Static equilibrium solubility of HCQS in supercritical carbon dioxide (UV-vis spectrophotometer)
Format: physicochemical
experimental.context: thermodynamic from solid, scCO2, 318 K, 210 bar; read-out: Equilibrium solubility, S
Structures can show the parent of a compound that is named as a salt.

compound: CCN(CCO)CCCC(C)Nc1ccnc2cc(Cl)ccc12 (stereo not shown) [HCQS, Hydroxychloroquine sulfate]
solubility thermodynamic at 1 h / µg/mL: 165
